- TESTED_TARGET: human GLP-1 receptor (human, UniProt P43220)
- RUN_DESCRIPTION: cell-based or functional assay
MEASURED_ENDPOINT: GLP-1 Receptor Activation (relative to GLP-1(7-37)OH) (relative potency)
Report only the number, with the unit relative potency understood.

Solved cases below.
HVEGTFTSDLSSYLEGQAAEEFIAWLVKGRG [Val^8-Leu^16-Glu^26-GLP-1(7-37)OH]    0.23
HVEGTFTSDVSSYLEGQAAKEFIAWLVKGEG [Val^8-Glu^36-GLP-1(7-37)OH]    0.11
HVEGTFTSDVSSYLEGQHAKEFIAWLVKGRG [Val^8-His^24-GLP-1(7-37)OH]    0.007
HVEGKFTSDVSSYLEGQAAKEFIAWLVKGRG [Val^8-Lys^11-GLP-1(7-37)OH]    0.001

Looking up HVEGTFTSDVSSYLEGQAAKEFISWLVKGRG [Val^8-Ser^30-GLP-1(7-37)OH] , I found its GLP-1 Receptor Activation (relative to GLP-1(7-37)OH) recorded as 0.19

Looking up HVEGTFTSDVSSYLEEKAAKEFIAWLVKGRG [Val^8-Glu^22-Lys^23-GLP-1(7-37)OH] , I found its GLP-1 Receptor Activation (relative to GLP-1(7-37)OH) recorded as 1.43

Looking up HVEGTFTSDVSSYLESQAAKEFIAWLVKGRG [Val^8-Ser^22-GLP-1(7-37)OH] , I found its GLP-1 Receptor Activation (relative to GLP-1(7-37)OH) recorded as 0.5

The measured values listed here are drawn from patent US20040235710A1.
